# Study Target: T1, murine HVEM (murine, UniProt Q80WM9 39-206, limits assumed); note: test concentration or dose not given here
# T1 construct: also called Mouse
# T1 sequence (looked up): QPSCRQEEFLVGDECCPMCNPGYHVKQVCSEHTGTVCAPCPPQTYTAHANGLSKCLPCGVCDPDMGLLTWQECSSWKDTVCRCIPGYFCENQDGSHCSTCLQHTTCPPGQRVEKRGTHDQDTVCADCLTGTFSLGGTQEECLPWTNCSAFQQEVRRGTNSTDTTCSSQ
# Assay Explanation: ELISA
Consider the following binders and their measured ELISA signal readings.
Please give the numeric answer without any surrounding text.

Here's what some known entries look like.
- Ab_079 (H5S20-22A18A) (antibody, V domains shown, also called Ab_79) VH: EVQLQQSGAELVKPGASVKLSCTASGFNIKDTYMHWVKQRPEQGLEWIGRIDPANGNTKYAPKFQGKATITADTSSNTAYLQLSSLTSEDTAVYYCARSFGNYFDYWGQGTTLTVSS VL: NIVLTQSPASLAVSLGQRATISCRASESVDSYGNSFMHWYQQKPGQPPKLLIYLASNLESGVPARFSGSGSRTDFTLTIDPVEADDAATYYCQQNYADPWTFGGGTKLEIK: 0.054
- Ab_034 (H5S15-16A11B) (antibody, V domains shown, also called Ab_34) VH: DVQLVESGGGLVQPGGSRKLSCAASGFTFSSFGMHWVRQAPEKGLEWVAHISSGSSTIYYADTVKGRFTISRDNPKNTLFLQMTSLRSEDTAMYYCARGAYGNFAWFPYWGQGTLVTVSA VL: DVVMTQTPLSLSVSLGDQASISCRSSQSLVHSNGNTYLHWYLQKPGQSPKLLIYKVSNRFSGVPDRFSGSGSGTDFTLKISRVEAEDLGVYFCSQSTHVPTFGSGTKLEIK: 0.045
- Ab_062 (H5S19-16A18A) (antibody, V domains shown, also called Ab_62) VH: QIQLVQSGPELKKPGETVKISCKASGYTFTNFGVNWVKQAPGKGLKWMGWINTYTGEPTYADDFKGRFAFSLETSASTAYLQINNLKNEDTATYFCVRSYYGNSGYWGQGTTLTVSS VL: QIVLTQSPAIMSTSPGEKVTLTCSASSSVSSSYLYWYQQKPGSSPKLWIYSTSNLASGVPARFSGSGSGTSYSLTISSMEAEDAASYFCHQWSTYPWTFGGGTKLEIK: 0.045
- Ab_075 (H5S20-12A10A) (antibody, V domains shown, also called Ab_75) VH: QIQLVQSGPELKKPGETVKISCKASGYTFTNFGMNWVRQAPGKGLKWMGWINTYTGEPTYADDFKGRFAFSLETSASTAYLQINNLKNDDMATYFCARSLYGNRDYWGQGTTLTVSS VL: QIVLTQSPAIMSASLGEEITLTCSASSSVSYMHWYQQRSGTSPKLLIYSTSNLASGVPSRFSGSGSGTFYSLTISSVEAEDAADYYCHQWSSYRTFGGGTKLEIK: 0.048

Endpoint output: ELISA signal of Ab_004 (H5S14-24A4A) (antibody, V domains shown, also called Ab_4) VH: EVQLQQSGPELVKPGTSVKISCKTSGYTITEYTMHWVKQSHGKSLEWIGGINPNNGGTINNQKFKDKATLTVDMSSSTAYMELRSLTSEDSAVYYCAGSVVDRYWYFDVWGAGTTVTVSS VL: QIVLTQSPAIMSASPGEKVTISCSASSSVSYMYWYQQKPGSSPKPWIYRTSNLASGVPARFSGSGSGTSYSLTISSMEAEDAATYYCQQYHSYPLTFGAGTKLELK . Value? 0.044
